target: Rhodesain (Trypanosoma brucei rhodesiense) (UniProt Q95PM0); test: Inhibition of recombinant Trypanosoma brucei rhodesain expressed in Pichia pastoris at 5 uM using Z-FR-AMC as substrate preincubated for 10 mins followed by substrate addition and measured at 12 sec interval for 5 mins by fluorimetric analysis relative to control; conditions: time 15.0 min
Sequence (Q95PM0 1-450): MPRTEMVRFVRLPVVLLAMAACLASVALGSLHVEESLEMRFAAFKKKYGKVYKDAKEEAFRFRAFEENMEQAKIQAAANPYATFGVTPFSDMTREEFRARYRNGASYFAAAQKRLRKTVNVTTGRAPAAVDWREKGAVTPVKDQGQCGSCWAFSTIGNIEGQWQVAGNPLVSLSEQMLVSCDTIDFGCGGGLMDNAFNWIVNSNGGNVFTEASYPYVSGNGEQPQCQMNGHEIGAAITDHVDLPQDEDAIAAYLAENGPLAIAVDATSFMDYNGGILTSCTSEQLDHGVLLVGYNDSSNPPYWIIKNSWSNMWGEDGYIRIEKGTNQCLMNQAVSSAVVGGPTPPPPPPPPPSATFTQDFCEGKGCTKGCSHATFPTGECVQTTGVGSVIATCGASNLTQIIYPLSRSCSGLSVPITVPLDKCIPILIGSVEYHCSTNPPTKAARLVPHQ
Tag: 1 if measured inhibition is not below 60%, -1 if it is.

Threshold query (inhibition >= 60%) on COCCN(C(=O)Cc1cccs1)C(C(=O)NCc1ccc(OC)cc1)c1ccc(C(C)C)cc1 (stereo not given)
1

Is it the case that CCCCCC(=O)N1c2ccccc2N=C2CC(c3ccc(OC)c(OC)c3)CC(O)=C2C1c1ccc(C(F)(F)F)cc1 (stereo not given) has inhibition reaching or exceeding 60%?
-1

Decide: inhibition of CC(C)OCc1cc(CN2CCN(c3cccc(Cl)c3)CC2)c(O)c2ncccc12 >= 60%?
1

Please tell me: is the compound O=C(NC1CCN(Cc2ccccc2)CC1)c1cc(-c2ccncc2)nc2ccc(Cl)cc12 at or over 60% in terms of inhibition?
-1

Is it the case that COc1ccc(OC)c(C2C3=C(CC(C)(C)CC3=O)N(c3ccc(Cl)c(Cl)c3)C3=C2C(=O)CC(C)(C)C3)c1 has inhibition reaching or exceeding 60%?
-1

Exam item: decide whether the reported inhibition for O=C(c1ccccc1F)N(Cc1ccc(Cl)cc1)c1ccccn1 is at least 60%.
1

inhibition >= 60% for CCC(C)NCC(O)(c1ccc(Cl)cc1)c1ccc(Cl)cc1 (stereo not given) ?
1

Decide: inhibition of Clc1ccc2[nH]c3c(NCCCN4CCOCC4)ncnc3c2c1 >= 60%?
1

Textbook exercise: given the entry Cc1cc(NC(=O)c2cccc(C(F)(F)F)c2)n(-c2nc(-c3ccc4c(c3)OCO4)cs2)n1 , state whether its inhibition is greater than or equal to 60%.
1

// inclusive: inhibition at least 60%? input: COc1ccccc1C(=O)ON=C(N)Cc1cccc2ccccc12
-1

Could you please find out whether CCCCCn1c(=N)n(CC(O)COc2cccc(C)c2)c2ccccc21 (stereo not given) has inhibition that meets 60% or exceeds it?
1

hey, is inhibition for this one >= 60%? Cc1ccc(C(=O)c2oc3ccc4c(C)cc(=O)oc4c3c2C)cc1
1

Can Nc1ccc(-c2nc3cc(Oc4ccc(Oc5ccc6[nH]c(-c7ccc(N)cc7)nc6c5)cc4)ccc3[nH]2)cc1 be said to have inhibition at or above 60%?
1

Dear colleague, could you confirm whether c1ccc(CNc2nc(Nc3ccccc3)nc3ccccc23)cc1 has inhibition at or above 60%?
1

Given the entry O=C(NC1CCN(Cc2ccccc2)CC1)c1cc(C(=O)NC2CCN(Cc3ccccc3)CC2)cc(C(=O)NC2CCN(Cc3ccccc3)CC2)c1 , answer whether its inhibition meets or surpasses 60%.
-1

Record COc1ccc(C(=O)NC(c2ccc(Cl)cc2Cl)c2cc(Cl)c3cccnc3c2O)cc1 (stereo not given) ; criterion: inhibition no lower than 60%. Met?
-1

Assess whether reported inhibition for Oc1ccc(C(=C(Cl)Cl)c2ccc(O)cc2)cc1 sits at 60% or higher.
1

Please tell me: is the compound CCOC(=O)c1c(C)n(-c2ccccc2)c2ccc(OC(=O)c3cc(OC)c(OC)c(OC)c3)cc12 at or over 60% in terms of inhibition?
1

In plain terms: is recorded inhibition at least 60% for Cc1cc(Nc2ccc(C)c(Cl)c2)n2nc(C(F)(F)F)nc2n1 ?
-1
